Assign Phosphorylation level relative to solvent (%) (cellular pS935 assay) to each entry below.
Target Or Test System: LRRK2 phospho-Ser935 (Homo sapiens)
Construct: expressed in transfected cells
Sequence (Q5S007 whole entry): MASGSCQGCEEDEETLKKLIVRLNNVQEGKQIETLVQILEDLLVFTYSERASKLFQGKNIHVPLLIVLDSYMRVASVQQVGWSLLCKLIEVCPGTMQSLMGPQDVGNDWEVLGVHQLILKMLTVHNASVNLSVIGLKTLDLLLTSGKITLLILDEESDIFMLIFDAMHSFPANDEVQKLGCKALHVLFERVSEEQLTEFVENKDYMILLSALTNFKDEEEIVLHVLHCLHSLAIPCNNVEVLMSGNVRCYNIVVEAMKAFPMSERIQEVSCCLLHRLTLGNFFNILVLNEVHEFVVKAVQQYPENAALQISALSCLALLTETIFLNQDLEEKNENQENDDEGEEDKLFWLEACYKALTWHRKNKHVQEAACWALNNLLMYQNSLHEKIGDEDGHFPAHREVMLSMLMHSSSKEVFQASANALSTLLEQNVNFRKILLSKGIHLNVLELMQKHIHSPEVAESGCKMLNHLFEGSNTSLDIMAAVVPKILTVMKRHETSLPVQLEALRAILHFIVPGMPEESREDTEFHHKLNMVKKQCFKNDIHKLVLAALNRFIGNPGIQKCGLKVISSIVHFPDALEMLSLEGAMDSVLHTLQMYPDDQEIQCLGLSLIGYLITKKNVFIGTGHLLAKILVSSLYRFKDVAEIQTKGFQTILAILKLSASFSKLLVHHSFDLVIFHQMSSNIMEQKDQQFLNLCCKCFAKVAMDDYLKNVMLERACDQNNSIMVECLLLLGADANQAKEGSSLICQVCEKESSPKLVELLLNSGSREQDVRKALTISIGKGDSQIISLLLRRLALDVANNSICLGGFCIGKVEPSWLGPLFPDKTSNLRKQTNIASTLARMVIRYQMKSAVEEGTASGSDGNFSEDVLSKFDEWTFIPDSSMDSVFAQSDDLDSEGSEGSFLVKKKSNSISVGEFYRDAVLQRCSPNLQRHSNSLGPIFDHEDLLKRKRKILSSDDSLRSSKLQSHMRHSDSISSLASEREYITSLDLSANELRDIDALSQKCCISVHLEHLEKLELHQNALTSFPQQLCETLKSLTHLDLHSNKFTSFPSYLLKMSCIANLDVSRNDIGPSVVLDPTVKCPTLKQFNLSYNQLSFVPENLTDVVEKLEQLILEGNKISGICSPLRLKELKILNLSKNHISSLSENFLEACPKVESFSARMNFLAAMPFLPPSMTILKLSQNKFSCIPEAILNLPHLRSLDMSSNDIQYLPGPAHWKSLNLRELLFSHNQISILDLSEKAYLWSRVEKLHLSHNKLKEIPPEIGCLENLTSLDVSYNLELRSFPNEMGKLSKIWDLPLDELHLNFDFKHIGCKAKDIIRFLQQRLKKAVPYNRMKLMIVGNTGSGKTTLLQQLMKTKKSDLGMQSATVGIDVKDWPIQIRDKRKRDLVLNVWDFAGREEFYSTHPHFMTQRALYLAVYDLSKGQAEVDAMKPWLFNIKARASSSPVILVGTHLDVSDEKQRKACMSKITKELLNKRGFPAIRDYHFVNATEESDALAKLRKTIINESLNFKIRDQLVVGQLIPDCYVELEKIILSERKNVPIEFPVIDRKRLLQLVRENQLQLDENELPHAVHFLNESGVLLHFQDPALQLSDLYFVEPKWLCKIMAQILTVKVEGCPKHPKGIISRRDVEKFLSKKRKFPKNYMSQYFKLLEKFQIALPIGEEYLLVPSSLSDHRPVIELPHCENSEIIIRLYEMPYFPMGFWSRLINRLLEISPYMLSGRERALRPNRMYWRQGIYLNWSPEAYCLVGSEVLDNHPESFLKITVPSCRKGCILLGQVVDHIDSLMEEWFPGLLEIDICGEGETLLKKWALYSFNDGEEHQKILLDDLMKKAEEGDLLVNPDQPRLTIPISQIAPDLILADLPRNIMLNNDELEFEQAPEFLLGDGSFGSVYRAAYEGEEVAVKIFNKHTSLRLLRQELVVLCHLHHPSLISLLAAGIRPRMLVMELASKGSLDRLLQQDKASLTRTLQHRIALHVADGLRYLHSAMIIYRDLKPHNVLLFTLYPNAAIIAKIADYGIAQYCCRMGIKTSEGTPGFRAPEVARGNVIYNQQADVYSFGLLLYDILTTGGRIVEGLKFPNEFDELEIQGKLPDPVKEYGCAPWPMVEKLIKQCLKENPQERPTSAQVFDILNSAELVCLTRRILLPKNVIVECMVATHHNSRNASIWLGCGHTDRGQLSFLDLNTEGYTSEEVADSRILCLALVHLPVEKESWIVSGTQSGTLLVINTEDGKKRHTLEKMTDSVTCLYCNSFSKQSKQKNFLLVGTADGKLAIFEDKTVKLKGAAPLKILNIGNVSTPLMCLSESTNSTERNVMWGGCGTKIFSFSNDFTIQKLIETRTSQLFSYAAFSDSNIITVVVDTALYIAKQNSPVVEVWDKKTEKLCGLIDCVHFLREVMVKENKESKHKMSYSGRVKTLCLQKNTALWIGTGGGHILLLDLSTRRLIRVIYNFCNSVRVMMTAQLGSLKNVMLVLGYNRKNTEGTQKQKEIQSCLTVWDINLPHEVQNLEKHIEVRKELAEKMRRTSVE
Experiment Description: Cellular LRRK2 phosphoserine 935 dephosphorylation spotblot assay in SH-SY5Y cells stably expressing 3xFlag-LRRK2
Format: cell-based
Test Context: @ 5 μM for 2 h; SH-SY5Y stably expressing LRRK2; pS935/total LRRK2
Entry rule: numbers only, all in %.

Problem: # lookup: Phosphorylation level relative to solvent (%) (cellular pS935 assay) of O=C(CCCc1ccc(-c2ccccc2F)cc1)Nc1ccc(O)cc1 [MK2a inhibitor]
Solution: 60.73

Problem: # lookup: Phosphorylation level relative to solvent (%) (cellular pS935 assay) of O=C1NC(=O)c2cc(Nc3ccc(F)cc3)c(Nc3ccc(F)cc3)cc21 [PKCbII/EGFR inhibitor]
Solution: 56.68

Problem: # lookup: Phosphorylation level relative to solvent (%) (cellular pS935 assay) of O=C(O)/C=C/c1cc(Br)c(Br)c(Br)c1Br [Casein kinase II inhibitor III, TBCA, TBCA]
Solution: 116.47

Problem: # lookup: Phosphorylation level relative to solvent (%) (cellular pS935 assay) of CCCCc1c(-c2ccc(O)cc2)[nH]c2nccnc12 [Aloisine A, RP107, Aloisine A]
Solution: 102.87

Problem: # lookup: Phosphorylation level relative to solvent (%) (cellular pS935 assay) of O=C1Nc2ccc(Cl)cc2/C1=C/c1cc(Cl)c(O)c(Cl)c1 [PKR inhibitor, negative control]
Solution: 72.69

Problem: # lookup: Phosphorylation level relative to solvent (%) (cellular pS935 assay) of Nc1nc(Nc2ccc(S(N)(=O)=O)cc2)nn1C(=S)Nc1c(F)cccc1F [Cdk1/2 inhibitor III]
Solution: 13.15

Problem: # lookup: Phosphorylation level relative to solvent (%) (cellular pS935 assay) of CCCNC(=O)Nc1ccc(Oc2ncnc3cc(OC)c(OC)cc23)cc1Cl [KRN63]
Solution: 62.48

Problem: # lookup: Phosphorylation level relative to solvent (%) (cellular pS935 assay) of Cc1cc(Nc2nc(-c3ccccc3)nc3ccccc23)n[nH]1 [GSK-3 inhibitor XIII]
Solution: 73.51

Problem: # lookup: Phosphorylation level relative to solvent (%) (cellular pS935 assay) of COc1ccc(OC)c2c(=S)c3ccccc3[nH]c12 [Cdk4 inhibitor II, 625987, NSC 625987]
Solution: 70.36

Problem: # lookup: Phosphorylation level relative to solvent (%) (cellular pS935 assay) of CCN(CC)CCNC(=O)c1c(C)[nH]c(/C=C2\C(=O)Nc3ccc(Cl)cc32)c1C [SU11652]
Solution: 14.19

Problem: # lookup: Phosphorylation level relative to solvent (%) (cellular pS935 assay) of CCOc1cc2ncnc(Nc3cccc(Br)c3)c2cc1OCC [Compound 56]
Solution: 86.56

Problem: # lookup: Phosphorylation level relative to solvent (%) (cellular pS935 assay) of Cn1nc2c3c(cccc31)C(=O)c1ccccc1-2 [JNK inhibitor, negative control]
Solution: 107.46

Problem: # lookup: Phosphorylation level relative to solvent (%) (cellular pS935 assay) of Cc1ccc(NC2=CC(=O)c3sc(C)nc3C2=O)cc1 [Cdk4 inhibitor III]
Solution: 48.63

Problem: # lookup: Phosphorylation level relative to solvent (%) (cellular pS935 assay) of CC(C)N(CCC(=O)c1ccc2ccccc2c1)Cc1ccccc1 [JAK3 inhibitor IV]
Solution: 63.71

Problem: # lookup: Phosphorylation level relative to solvent (%) (cellular pS935 assay) of COc1ccc(C(=O)Nc2sc3c(c2C(N)=O)CCCC3)cc1OC [Flt-3 inhibitor]
Solution: 63.54

Problem: # lookup: Phosphorylation level relative to solvent (%) (cellular pS935 assay) of COc1ccc(CNc2nc(N(CCO)CCO)nc3c2ncn3C(C)C)cc1 [Cdk2 inhibitor III]
Solution: 100.49

Problem: # lookup: Phosphorylation level relative to solvent (%) (cellular pS935 assay) of CCn1cnc2c(Nc3cccc(Cl)c3)nc(N[C@@H]3CCCC[C@@H]3N)nc21 [Cdk1 inhibitor, CGP74514A, CGP74514A]
Solution: 83.35

Problem: # lookup: Phosphorylation level relative to solvent (%) (cellular pS935 assay) of COc1ccc2c(c[n+](C)c3c4cc5c(cc4ccc23)OCO5)c1OC [Chelerythrine chloride]
Solution: 67.25

Problem: # lookup: Phosphorylation level relative to solvent (%) (cellular pS935 assay) of CC(=O)O/N=C1/C(=C2/C(=O)Nc3cc(Br)ccc32)Nc2ccccc21 [GSK-3 inhibitor X]
Solution: 106.06

Problem: # lookup: Phosphorylation level relative to solvent (%) (cellular pS935 assay) of N#CC(C#N)=C(N)/C(C#N)=C/c1ccc(O)cc1 [AG 112]
Solution: 60.39

Problem: # lookup: Phosphorylation level relative to solvent (%) (cellular pS935 assay) of O=c1cc(N2CCNCC2)oc2c(-c3ccccc3)cccc12 [LY 303511]
Solution: 47.60

Problem: # lookup: Phosphorylation level relative to solvent (%) (cellular pS935 assay) of CC(C)(C)c1nc2c3cc[nH]c(=O)c3c3cc(F)ccc3c2[nH]1 [JAK inhibitor I]
Solution: 47.17

Problem: # lookup: Phosphorylation level relative to solvent (%) (cellular pS935 assay) of c1cc(-c2cnn3cc(-c4ccc(OCCN5CCCCC5)cc4)cnc23)ccn1 [AMPK inhibitor, compound C]
Solution: 112.70

Problem: # lookup: Phosphorylation level relative to solvent (%) (cellular pS935 assay) of c1ccc(-c2cnc(Nc3ccc(OCCN4CCCC4)cc3)s2)cc1 [Flt-3 inhibitor III]
Solution: 54.21

Problem: # lookup: Phosphorylation level relative to solvent (%) (cellular pS935 assay) of O=C(NC(NC(=S)Nc1ccc(F)c([N+](=O)[O-])c1)C(Cl)(Cl)Cl)C(c1ccccc1)c1ccccc1 (stereo not drawn) [ATM/ATR kinase inhibitor]
Solution: 88.64

Problem: # lookup: Phosphorylation level relative to solvent (%) (cellular pS935 assay) of CCC(=O)Nc1ccc2ncnc(Nc3cccc(Br)c3)c2c1 [PD 174265]
Solution: 67.74

Problem: # lookup: Phosphorylation level relative to solvent (%) (cellular pS935 assay) of N#Cc1c(NC(=O)c2cccc3ccccc23)sc2c1CCCC2 [JNK inhibitor IX]
Solution: 42.05

Problem: # lookup: Phosphorylation level relative to solvent (%) (cellular pS935 assay) of COc1cc2ncnc(N3CCN(C(=O)Nc4ccc(Oc5ccccc5)cc4)CC3)c2cc1OC
Solution: 72.83

Problem: # lookup: Phosphorylation level relative to solvent (%) (cellular pS935 assay) of N/C(=N\[N+](=O)[O-])N/N=C\c1ccc(-c2cccc([N+](=O)[O-])c2)o1 [ERK inhibitor III]
Solution: 90.93

Problem: # lookup: Phosphorylation level relative to solvent (%) (cellular pS935 assay) of Cn1sc(=O)n(Cc2ccccc2)c1=O [GSK-3b inhibitor I]
Solution: 95.90

Problem: # lookup: Phosphorylation level relative to solvent (%) (cellular pS935 assay) of O=C(c1cc2cc(O)ccc2[nH]1)c1cc2cc(O)ccc2[nH]1 [Flt-3 inhibitor II]
Solution: 53.00

Problem: # lookup: Phosphorylation level relative to solvent (%) (cellular pS935 assay) of O=c1c(-c2ccc(F)cc2)c(-c2ccncc2)[nH]n1-c1ccc(Cl)cc1 [p38 MAP kinase inhibitor]
Solution: 93.68

Problem: # lookup: Phosphorylation level relative to solvent (%) (cellular pS935 assay) of O=c1c2ccccc2[nH]c(=S)n1CCN1CCC(=C(c2ccc(F)cc2)c2ccc(F)cc2)CC1 [Diacylglycerol kinase inhibitor II]
Solution: 84.54

Where do these numbers come from? They come from paper PMC4042160.
